target_or_system: Thymidylate synthase (Cryptococcus neoformans var. neoformans serotype D (strain B-3501A), UniProt P0CS13)
Sequence (P0CS13 whole entry): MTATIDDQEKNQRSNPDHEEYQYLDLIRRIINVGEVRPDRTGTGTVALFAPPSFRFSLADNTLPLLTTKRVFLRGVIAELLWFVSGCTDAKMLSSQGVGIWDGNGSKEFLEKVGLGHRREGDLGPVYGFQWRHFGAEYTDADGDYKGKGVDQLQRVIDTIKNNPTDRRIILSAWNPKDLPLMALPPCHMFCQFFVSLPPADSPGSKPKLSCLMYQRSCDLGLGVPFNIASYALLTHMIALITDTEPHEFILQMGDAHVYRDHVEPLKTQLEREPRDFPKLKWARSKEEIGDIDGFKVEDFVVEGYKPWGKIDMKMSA
test_method_notes: Thymidylate Synthase (TS) Assay
cond: pH 7.4; 20 °C
observed_property: Ki (µM)
Express your answer in µM, writing the number without its unit.

Form field Ki, entry O=C1OC(c2ccc(O)c(Br)c2)(c2ccc(O)c(Br)c2)c2cccc3c(Cl)ccc1c23 : 4.1

###

target_or_system: Thymidylate synthase (Escherichia coli (strain K12))
Sequence (P0A884 whole entry): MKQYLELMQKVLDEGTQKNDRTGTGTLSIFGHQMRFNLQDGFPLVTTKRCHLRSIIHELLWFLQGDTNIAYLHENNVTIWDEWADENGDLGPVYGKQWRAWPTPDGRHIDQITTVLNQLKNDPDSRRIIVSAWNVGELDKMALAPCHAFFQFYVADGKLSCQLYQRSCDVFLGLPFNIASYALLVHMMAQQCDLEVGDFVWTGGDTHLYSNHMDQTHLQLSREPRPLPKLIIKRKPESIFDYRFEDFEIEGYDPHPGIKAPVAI
test_method_notes: Thymidylate Synthase (TS) Assay
cond: pH 7.4; 20 °C
observed_property: Ki
Please answer using a numeric value trailed by its unit.

// O=C1OC(c2ccc(O)c(Br)c2)(c2ccc(O)c(Br)c2)c2cccc3c(Cl)ccc1c23 : Ki value = 4.1 µM

Data origin: BindingDB's records for doi:10.1107/S0907444905022638
